# Test summary: molar heat capacity at constant pressure
# Assay context: 332.15 K; 101.33 kPa; Liquid; Small sample (50 mg) DSC
Measured endpoint: molar heat capacity at constant pressure (J/K/mol)

Worked examples follow.
OCCCCCCCO [1,7-heptanediol] :: 330.54
OCCCCCCCCCO [1,9-nonanediol] :: 408.03
OCCCCO [1,4-butanediol] :: 223.53
OCCCCCO [1,5-pentanediol] :: 258.37
OCCCO [propan-1,3-diol] :: 192.35

P. OCCCCCCO [1,6-hexanediol]
Q. OCCO [1,2-ethanediol]
Input: Given P and Q , report the one with the higher recorded molar heat capacity at constant pressure. Indicate which entry you chose by stating its label.
Output: P
(P: 296.76 J/K/mol, Q: 160.56 J/K/mol)
